- Tested on: HCT-15
- Experiment notes: SRB percentage growth inhibition (NCI protocol)
- Format: cell-based
- Reported conditions: Homo sapiens, 1 μM, 48 hrs exposure
Measured metric: inhibition at 1 µM (%)
Kindly provide the numeric value in % only, without the unit symbol.

# get_value(readout='inhibition at 1 µM', item= `COc1ccc(Nc2ncccc2C(=O)Nc2nc3ccc([N+](=O)[O-])cc3s2)cc1` )
9

# get_value(readout='inhibition at 1 µM', item= `O=C(Nc1nc2ccc([N+](=O)[O-])cc2s1)c1cccnc1Nc1ccccc1` )
6

# get_value(readout='inhibition at 1 µM', item= `O=C(Nc1nc2ccc([N+](=O)[O-])cc2s1)c1cccnc1Nc1ccc(Cl)cc1Cl` )
4

# get_value(readout='inhibition at 1 µM', item= `O=C(Nc1nc2ccc([N+](=O)[O-])cc2s1)c1cccnc1Nc1ccc(F)cc1` )
22

# get_value(readout='inhibition at 1 µM', item= O=c1[nH]cc(F)c(=O)[nH]1 [Compound 5-FU, 5-fluorouracil, reference compound] )
46

* * *

Please respond with reported inhibition at 10 µM for every item in the list.
- Tested on: A549
- Experiment notes: SRB percentage growth inhibition (NCI protocol)
- Assay type: cell-based
- Reported conditions: Homo sapiens, 10 μM, 48 hrs exposure
Kindly provide the numeric value in % only, without the unit symbol.

# get_value(readout='inhibition at 10 µM', item= `O=C(Nc1nc2ccc([N+](=O)[O-])cc2s1)c1cccnc1Nc1cc(F)c(F)c(F)c1` )
27

# get_value(readout='inhibition at 10 µM', item= `O=C(Nc1nc2ccc([N+](=O)[O-])cc2s1)c1cccnc1Nc1ccc(Cl)cc1Cl` )
19

# get_value(readout='inhibition at 10 µM', item= `O=C(Nc1nc2ccc([N+](=O)[O-])cc2s1)c1cccnc1Nc1ccccc1` )
31

* * *

Entries with reported GI50 on SN12C
Kindly provide the numeric value in µM only, without the unit symbol.

Recall the recorded GI50 for O=C(Nc1nc2ccc(F)cc2s1)c1cccnc1Nc1ccc(Cl)cc1Cl [Compound 10] with SN12C and state it.
2.32

Recall the recorded GI50 for COc1cc(Nc2ncccc2C(=O)Nc2nc3ccc(F)cc3s2)cc(OC)c1OC [Compound 11] with SN12C and state it.
4.73

Recall the recorded GI50 for COc1ccc2nc(NC(=O)c3cccnc3Nc3cc(OC)c(OC)c(OC)c3)sc2c1 [Compound 12] with SN12C and state it.
11.7

Recall the recorded GI50 for O=C(Nc1nc2ccc(F)cc2s1)c1cccnc1Nc1ccc(Cl)cc1 [Compound 9] with SN12C and state it.
2.3

* * *

- Tested on: IMR-32
- Experiment notes: SRB percentage growth inhibition (NCI protocol)
- Format: cell-based
- Reported conditions: Homo sapiens, 1 μM, 48 hrs exposure
Please respond with reported inhibition at 1 µM for every item in the list.
Kindly provide the numeric value in % only, without the unit symbol.

Recall the recorded inhibition at 1 µM for `O=C(Nc1nc2ccc([N+](=O)[O-])cc2s1)c1cccnc1Nc1ccc(Cl)cc1Cl` with IMR-32 and state it.
42

Recall the recorded inhibition at 1 µM for `O=C(Nc1nc2ccc([N+](=O)[O-])cc2s1)c1cccnc1Nc1ccccc1` with IMR-32 and state it.
35

Recall the recorded inhibition at 1 µM for `O=C(Nc1nc2ccc([N+](=O)[O-])cc2s1)c1cccnc1Nc1ccc(F)cc1` with IMR-32 and state it.
31

Recall the recorded inhibition at 1 µM for `O=C(Nc1nc2ccc([N+](=O)[O-])cc2s1)c1cccnc1Nc1cc(F)c(F)c(F)c1` with IMR-32 and state it.
48

Recall the recorded inhibition at 1 µM for `COc1ccc(Nc2ncccc2C(=O)Nc2nc3ccc([N+](=O)[O-])cc3s2)cc1` with IMR-32 and state it.
53

* * *

- Tested on: IMR-32
- Experiment notes: SRB percentage growth inhibition (NCI protocol)
- Format: cell-based
- Reported conditions: Homo sapiens, 10 μM, 48 hrs exposure
- Description: 2-Anilino nicotinyl linked 2-amino benzothiazoles conjugates of formula 4-8 have been tested against ten and eleven human cancer cell lines for 10 and 1 μM respectively derived from nine cancer types (leukemia, non-small cell lung cancer, colon cancer, CNS cancer, melanoma, ovarian cancer, renal cancer, prostate cancer and breast cancer) as per NCI protocol. […] The percentage of growth inhibition compared with the control was calculated in table 1 and table 2.
Please respond with reported inhibition at 10 µM for every item in the list.
Kindly provide the numeric value in % only, without the unit symbol.

Recall the recorded inhibition at 10 µM for O=C(Nc1nc2ccc([N+](=O)[O-])cc2s1)c1cccnc1Nc1cc(F)c(F)c(F)c1 [Compound 8] with IMR-32 and state it.
72

Recall the recorded inhibition at 10 µM for O=C(Nc1nc2ccc([N+](=O)[O-])cc2s1)c1cccnc1Nc1ccccc1 [Compound 4] with IMR-32 and state it.
45

Recall the recorded inhibition at 10 µM for CC(=O)O[C@H]1C(=O)[C@@]2(C)[C@H]([C@H](OC(=O)c3ccccc3)[C@]3(O)C[C@H](OC(=O)[C@H](O)[C@@H](NC(=O)c4ccccc4)c4ccccc4)C(C)=C1C3(C)C)[C@]1(OC(C)=O)CO[C@@H]1C[C@@H]2O [Pac, paclitaxel, reference compound] with IMR-32 and state it.
46

Recall the recorded inhibition at 10 µM for O=C(Nc1nc2ccc([N+](=O)[O-])cc2s1)c1cccnc1Nc1ccc(F)cc1 [Compound 6] with IMR-32 and state it.
33

Recall the recorded inhibition at 10 µM for COc1ccc(Nc2ncccc2C(=O)Nc2nc3ccc([N+](=O)[O-])cc3s2)cc1 [Compound 5] with IMR-32 and state it.
55

Recall the recorded inhibition at 10 µM for O=C(Nc1nc2ccc([N+](=O)[O-])cc2s1)c1cccnc1Nc1ccc(Cl)cc1Cl [Compound 7] with IMR-32 and state it.
48

Recall the recorded inhibition at 10 µM for O=c1[nH]cc(F)c(=O)[nH]1 [Compound 5-FU, 5-fluorouracil, reference compound] with IMR-32 and state it.
71

* * *

Please respond with reported GI50 for every item in the list.
Kindly provide the numeric value in nM only, without the unit symbol.

Recall the recorded GI50 for `O=C(Nc1nc2ccc(F)cc2s1)c1cccnc1Nc1ccc(Cl)cc1` with UO-31 and state it.
1940

Recall the recorded GI50 for `COc1cc(Nc2ncccc2C(=O)Nc2nc3ccc(F)cc3s2)cc(OC)c1OC` with UO-31 and state it.
3370

Recall the recorded GI50 for `O=C(Nc1nc2ccc(F)cc2s1)c1cccnc1Nc1ccc(Cl)cc1Cl` with UO-31 and state it.
1100

Recall the recorded GI50 for `COc1ccc2nc(NC(=O)c3cccnc3Nc3cc(OC)c(OC)c(OC)c3)sc2c1` with UO-31 and state it.
9300

* * *

Please respond with reported melting point for every item in the list.

# get_value(readout='melting point', item= O=C(Nc1nc2ccc(F)cc2s1)c1cccnc1Nc1ccc(Cl)cc1 [Compound 9] )
254 to 257 °C

# get_value(readout='melting point', item= COc1cc(Nc2ncccc2C(=O)Nc2nc3ccc(F)cc3s2)cc(OC)c1OC [Compound 11] )
214 to 216 °C

# get_value(readout='melting point', item= O=C(Nc1nc2ccc(F)cc2s1)c1cccnc1Nc1ccc(Cl)cc1Cl [Compound 10] )
208 to 210 °C

# get_value(readout='melting point', item= COc1ccc2nc(NC(=O)c3cccnc3Nc3cc(OC)c(OC)c(OC)c3)sc2c1 [Compound 12] )
121 to 125 °C (dec.)

* * *

Entries with reported GI50 on OVCAR-5
Kindly provide the numeric value in µM only, without the unit symbol.

# get_value(readout='GI50', item= `O=C(Nc1nc2ccc(F)cc2s1)c1cccnc1Nc1ccc(Cl)cc1Cl` )
4.46

# get_value(readout='GI50', item= `O=C(Nc1nc2ccc(F)cc2s1)c1cccnc1Nc1ccc(Cl)cc1` )
2.63

# get_value(readout='GI50', item= `COc1cc(Nc2ncccc2C(=O)Nc2nc3ccc(F)cc3s2)cc(OC)c1OC` )
25.6

# get_value(readout='GI50', item= `COc1ccc2nc(NC(=O)c3cccnc3Nc3cc(OC)c(OC)c(OC)c3)sc2c1` )
14.5

* * *

Please respond with reported GI50 for every item in the list.
- Test system: BT-549
- Experiment notes: NCI SRB GI50 screen
- Type: cell-based
- Reported conditions: Homo sapiens, Breast, 48 hrs exposure, read-out: Growth Inhibition GI50 BT-549
Kindly provide the numeric value in nM only, without the unit symbol.

Recall the recorded GI50 for COc1ccc2nc(NC(=O)c3cccnc3Nc3cc(OC)c(OC)c(OC)c3)sc2c1 [Compound 12] with BT-549 and state it.
11600

Recall the recorded GI50 for O=C(Nc1nc2ccc(F)cc2s1)c1cccnc1Nc1ccc(Cl)cc1Cl [Compound 10] with BT-549 and state it.
3010

Recall the recorded GI50 for COc1cc(Nc2ncccc2C(=O)Nc2nc3ccc(F)cc3s2)cc(OC)c1OC [Compound 11] with BT-549 and state it.
2630

Recall the recorded GI50 for O=C(Nc1nc2ccc(F)cc2s1)c1cccnc1Nc1ccc(Cl)cc1 [Compound 9] with BT-549 and state it.
2050
